Target: 14-3-3β/CFTRpS753pS768 complex (Homo sapiens, UniProt P13569+P31946)
Construct: His6 (cleaved yes); made in house; peptide synthetic
Sequence (P31946 whole entry): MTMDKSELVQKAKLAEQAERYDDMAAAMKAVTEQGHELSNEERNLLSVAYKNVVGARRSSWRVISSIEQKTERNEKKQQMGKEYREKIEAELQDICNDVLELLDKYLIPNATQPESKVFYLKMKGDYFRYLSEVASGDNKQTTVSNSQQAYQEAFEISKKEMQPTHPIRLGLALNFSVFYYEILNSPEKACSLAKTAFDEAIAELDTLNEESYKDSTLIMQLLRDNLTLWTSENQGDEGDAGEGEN
Sequence (P13569 747-774 limits assumed): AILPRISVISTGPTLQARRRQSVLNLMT
Test: Dose-response fluorescence polarization (FP) assay, compound titration
Type: binding
Conditions: With 14-3-3; compound 953.7 pM
Kindly state FP signal for each of the entries shown.
Please respond with just the number, no unit label.

FP signal for N=C(N)NCCCC1NC(=O)C(CCC(N)=O)NC(=O)C(CCCNC(=N)N)NC(=O)C2CCCN2Cc2cccc(c2)-c2ccccc2CNC1=O (stereo not drawn) [CY007458] ?
5

For N=C(N)NCCCC1NCc2ccccc2Sc2ccccc2CNC(=O)C(Cc2ccc(O)cc2)NC(=O)C(CCCN)NC1=O (stereo not drawn) then?
5

For C=CC(C)(C)OC[C@H]1O[C@H](O[C@@H]2C3=C([C@H](C)COC(C)=O)C[C@H](O)[C@]3(C)/C=C3/[C@@H](COC)CC[C@H]3[C@@H](C)[C@H]2O)[C@H](O)[C@@H](OC(C)=O)[C@@H]1O [FC-A, fusicoccin A, reference compound] then?
5

For NCCCC1NCc2ccccc2Sc2ccccc2CNC(=O)C(Cc2c[nH]c3ccccc23)NC(=O)C(Cc2ccccc2)NC1=O (stereo not drawn) then?
5

For NCCCCC1NCc2ccccc2Sc2ccccc2CNC(=O)C(Cc2cccc(Cl)c2)NC(=O)C(Cc2ccc(O)cc2)NC1=O (stereo not drawn) then?
6

For N=C(N)NCCCC1NC(=O)C(CCCCN)NCc2ccccc2Sc2ccccc2CNC(=O)C(Cc2ccc(O)cc2)NC1=O (stereo not drawn) then?
3

For CN1CC(=O)NC(CCCNC(=N)N)C(=O)NC(CCC(N)=O)C(=O)NC(CCCNC(=N)N)C(=O)NCc2ccccc2-c2cccc(c2)C1 (stereo not drawn) then?
5

For CC1NC(=O)C(CCCNC(=N)N)NC(=O)C2CCCN2Cc2cccc(c2)-c2ccccc2CNC(=O)C(CCCNC(=N)N)NC1=O (stereo not drawn) then?
3

For N=C(N)NCCCC1NC(=O)C(CCC(N)=O)NC(=O)C(CCCNC(=N)N)NC(=O)C2CCCN2Cc2cccc(c2)-c2ccccc2CNC1=O (stereo not drawn) [CY007455] then?
6

* * *

Kindly state FP signal for each of the entries shown.
Target: FITC-labeled CFTRpS753pS768 peptide (no 14-3-3) (Homo sapiens)
Construct: made in house; host or cells: synthetic peptide
Assay: Dose-response FP control assay in the absence of 14-3-3
Format: binding
Settings: No 14-3-3; compound 1.2207e-7 M

FP signal for N=C(N)NCCCC1NC(=O)C(CCC(N)=O)NC(=O)C(CCCNC(=N)N)NC(=O)C2CCCN2Cc2cccc(c2)-c2ccccc2CNC1=O (stereo not drawn) [CY007455] ?
7

For NCCCC1NCc2ccccc2Sc2ccccc2CNC(=O)C(Cc2c[nH]c3ccccc23)NC(=O)C(Cc2ccccc2)NC1=O (stereo not drawn) then?
6

For N=C(N)NCCCC1NCc2ccccc2Sc2ccccc2CNC(=O)C(Cc2ccc(O)cc2)NC(=O)C(CCCN)NC1=O (stereo not drawn) then?
5

* * *

Target: 14-3-3β/CFTRpS753pS768 complex (Homo sapiens, UniProt P13569+P31946)
Construct: His6 (cleaved yes); made in house; peptide synthetic
Assay: Dose-response fluorescence polarization (FP) assay, compound titration
Assay type: binding
Conditions: With 14-3-3; compound 1.2207e-7 M
Experimental: The 14-3-3β concentration used for the FP screening assay was 10 μM (dashed line). c HTS FP assay of the Cyclenium library. The samples contain 100 nM of FITC-CFTR_pS753pS768 peptide, 10 μM 14-3-3β, and 50 μM compound. FC-A (100 µM) was added as a positive control and DMSO as the negative control. Hit compounds are defined as a polarization increase which is higher than 20% of the response of FC-A. Red squares are compounds that appeared positive in the negative control without 14-3-3. […]
Reported metric: FP signal

FP signal for N=C(N)NCCCC1NC(=O)C(CCC(N)=O)NC(=O)C(CCCNC(=N)N)NC(=O)C2CCCN2Cc2cccc(c2)-c2ccccc2CNC1=O (stereo not drawn) [CY007455] ?
7

For N=C(N)NCCCC1NCc2ccccc2Sc2ccccc2CNC(=O)C(Cc2ccc(O)cc2)NC(=O)C(CCCN)NC1=O (stereo not drawn) [CY007424] then?
5

For N=C(N)NCCCC1NC(=O)C(CCCCN)NCc2ccccc2Sc2ccccc2CNC(=O)C(Cc2ccc(O)cc2)NC1=O (stereo not drawn) [CY001951] then?
4

For N=C(N)NCCCC1NC(=O)C(CCC(N)=O)NC(=O)C(CCCNC(=N)N)NC(=O)C2CCCN2Cc2cccc(c2)-c2ccccc2CNC1=O (stereo not drawn) [CY007458] then?
4

For CC1NC(=O)C(CCCNC(=N)N)NC(=O)C2CCCN2Cc2cccc(c2)-c2ccccc2CNC(=O)C(CCCNC(=N)N)NC1=O (stereo not drawn) [CY007476] then?
3

For NCCCC1NCc2ccccc2Sc2ccccc2CNC(=O)C(Cc2c[nH]c3ccccc23)NC(=O)C(Cc2ccccc2)NC1=O (stereo not drawn) [CY007345] then?
6

For NCCCCC1NCc2ccccc2Sc2ccccc2CNC(=O)C(Cc2cccc(Cl)c2)NC(=O)C(Cc2ccc(O)cc2)NC1=O (stereo not drawn) [CY007288] then?
4

For CN1CC(=O)NC(CCCNC(=N)N)C(=O)NC(CCC(N)=O)C(=O)NC(CCCNC(=N)N)C(=O)NCc2ccccc2-c2cccc(c2)C1 (stereo not drawn) [CY007491] then?
8

For C=CC(C)(C)OC[C@H]1O[C@H](O[C@@H]2C3=C([C@H](C)COC(C)=O)C[C@H](O)[C@]3(C)/C=C3/[C@@H](COC)CC[C@H]3[C@@H](C)[C@H]2O)[C@H](O)[C@@H](OC(C)=O)[C@@H]1O [FC-A, fusicoccin A, reference compound] then?
1

* * *

Biological target: FITC-labeled CFTRpS753pS768 peptide (no 14-3-3) (Homo sapiens, UniProt P13569)
Construct: made in house; host or cells: synthetic peptide
Test: Dose-response FP control assay in the absence of 14-3-3
Assay type: binding
Conditions: No 14-3-3; compound 9.76563e-7 M
Kindly state FP signal for each of the entries shown.
Please respond with just the number, no unit label.

FP signal for N=C(N)NCCCC1NCc2ccccc2Sc2ccccc2CNC(=O)C(Cc2ccc(O)cc2)NC(=O)C(CCCN)NC1=O (stereo not drawn) ?
7

For NCCCC1NCc2ccccc2Sc2ccccc2CNC(=O)C(Cc2c[nH]c3ccccc23)NC(=O)C(Cc2ccccc2)NC1=O (stereo not drawn) then?
7

For CC1NC(=O)C(CCCNC(=N)N)NC(=O)C2CCCN2Cc2cccc(c2)-c2ccccc2CNC(=O)C(CCCNC(=N)N)NC1=O (stereo not drawn) then?
5

For C=CC(C)(C)OC[C@H]1O[C@H](O[C@@H]2C3=C([C@H](C)COC(C)=O)C[C@H](O)[C@]3(C)/C=C3/[C@@H](COC)CC[C@H]3[C@@H](C)[C@H]2O)[C@H](O)[C@@H](OC(C)=O)[C@@H]1O [FC-A, fusicoccin A, reference compound] then?
5

For NCCCCC1NCc2ccccc2Sc2ccccc2CNC(=O)C(Cc2cccc(Cl)c2)NC(=O)C(Cc2ccc(O)cc2)NC1=O (stereo not drawn) then?
6

For CN1CC(=O)NC(CCCNC(=N)N)C(=O)NC(CCC(N)=O)C(=O)NC(CCCNC(=N)N)C(=O)NCc2ccccc2-c2cccc(c2)C1 (stereo not drawn) then?
5

For N=C(N)NCCCC1NC(=O)C(CCC(N)=O)NC(=O)C(CCCNC(=N)N)NC(=O)C2CCCN2Cc2cccc(c2)-c2ccccc2CNC1=O (stereo not drawn) [CY007458] then?
6

For N=C(N)NCCCC1NC(=O)C(CCC(N)=O)NC(=O)C(CCCNC(=N)N)NC(=O)C2CCCN2Cc2cccc(c2)-c2ccccc2CNC1=O (stereo not drawn) [CY007455] then?
4

For N=C(N)NCCCC1NC(=O)C(CCCCN)NCc2ccccc2Sc2ccccc2CNC(=O)C(Cc2ccc(O)cc2)NC1=O (stereo not drawn) then?
6

* * *

Molecular target: 14-3-3β/CFTRpS753pS768 complex (Homo sapiens, UniProt P13569+P31946)
Construct: His6 (cleaved yes); made in house; peptide synthetic
Experiment: Dose-response fluorescence polarization (FP) assay, compound titration
Format: binding
Settings: With 14-3-3; compound 0.000125 M
Reported metric: FP signal
Please respond with just the number, no unit label.

FP signal for N=C(N)NCCCC1NCc2ccccc2Sc2ccccc2CNC(=O)C(Cc2ccc(O)cc2)NC(=O)C(CCCN)NC1=O (stereo not drawn) ?
244

For NCCCC1NCc2ccccc2Sc2ccccc2CNC(=O)C(Cc2c[nH]c3ccccc23)NC(=O)C(Cc2ccccc2)NC1=O (stereo not drawn) then?
191

For N=C(N)NCCCC1NC(=O)C(CCC(N)=O)NC(=O)C(CCCNC(=N)N)NC(=O)C2CCCN2Cc2cccc(c2)-c2ccccc2CNC1=O (stereo not drawn) [CY007455] then?
107

Cited source for all entries: paper PMC9226124
